- Test Target: T1, hGCGR-hFc (human)
- T1 construct: also called REGN316
- T1 sequence (chain, as listed by the source limits assumed): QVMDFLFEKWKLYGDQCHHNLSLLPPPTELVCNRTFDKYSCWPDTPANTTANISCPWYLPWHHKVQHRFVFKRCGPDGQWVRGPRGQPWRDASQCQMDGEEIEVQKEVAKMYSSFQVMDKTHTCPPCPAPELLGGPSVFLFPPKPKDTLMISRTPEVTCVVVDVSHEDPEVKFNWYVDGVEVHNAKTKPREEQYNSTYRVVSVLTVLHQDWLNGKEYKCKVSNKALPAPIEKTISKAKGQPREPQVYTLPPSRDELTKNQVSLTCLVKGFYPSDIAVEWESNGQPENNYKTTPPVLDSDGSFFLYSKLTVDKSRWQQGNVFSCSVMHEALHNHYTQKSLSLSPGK
- Test Name: SPR Biacore T100, 37C, mAb captured, antigen flowed
Measurement Kind: T½ (min)
Unit min implied. Number only.

H4H1327P (antibody, V domains shown, also called anti-GCGR (hIgG4) antibody designated H4H1327P) VH: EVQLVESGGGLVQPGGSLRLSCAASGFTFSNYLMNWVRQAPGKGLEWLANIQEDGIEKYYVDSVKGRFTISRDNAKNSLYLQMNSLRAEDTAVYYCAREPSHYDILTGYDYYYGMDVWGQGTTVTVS VL: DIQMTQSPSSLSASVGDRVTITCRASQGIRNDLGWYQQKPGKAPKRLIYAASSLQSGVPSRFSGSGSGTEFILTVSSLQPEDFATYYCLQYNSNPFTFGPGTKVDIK
50
H4H1331P (antibody, V domains shown, Fully human anti-GCGR antibody; the controls are called isotype-matched hIgG4) VH: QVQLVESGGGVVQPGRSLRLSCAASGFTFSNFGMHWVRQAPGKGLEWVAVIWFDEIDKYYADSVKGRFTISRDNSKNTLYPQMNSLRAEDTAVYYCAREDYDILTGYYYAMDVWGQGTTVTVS VL: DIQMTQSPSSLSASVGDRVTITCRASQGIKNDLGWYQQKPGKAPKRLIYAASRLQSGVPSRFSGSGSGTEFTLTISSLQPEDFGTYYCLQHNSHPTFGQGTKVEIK
127
H4H1321P (antibody, V domains shown, Fully human anti-GCGR antibody; the controls are called isotype-matched hIgG4) VH: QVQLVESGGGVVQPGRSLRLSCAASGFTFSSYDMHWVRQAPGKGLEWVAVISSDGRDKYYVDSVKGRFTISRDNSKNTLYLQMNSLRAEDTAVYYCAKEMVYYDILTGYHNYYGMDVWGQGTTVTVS VL: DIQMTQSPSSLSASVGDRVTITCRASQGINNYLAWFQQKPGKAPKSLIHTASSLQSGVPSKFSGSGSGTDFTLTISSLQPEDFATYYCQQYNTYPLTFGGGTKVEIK
106

Req: Returns the measured T½ for the input binder. Input: H4H1765N (antibody, V domains shown, Anti-GCGR antibody from hybridoma; the controls are called isotype-matched hIgG4) VH: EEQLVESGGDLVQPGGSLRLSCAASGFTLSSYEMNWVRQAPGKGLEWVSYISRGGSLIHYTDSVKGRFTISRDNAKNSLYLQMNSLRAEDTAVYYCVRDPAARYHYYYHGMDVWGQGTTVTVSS VL: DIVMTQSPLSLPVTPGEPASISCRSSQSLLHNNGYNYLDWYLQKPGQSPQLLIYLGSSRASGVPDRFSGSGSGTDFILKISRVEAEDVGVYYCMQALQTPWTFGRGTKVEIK
Resp: 324

Req: Give the measured T½ of H4H1339P (antibody, V domains shown, Fully human anti-GCGR antibody; the controls are called isotype-matched hIgG4) VH: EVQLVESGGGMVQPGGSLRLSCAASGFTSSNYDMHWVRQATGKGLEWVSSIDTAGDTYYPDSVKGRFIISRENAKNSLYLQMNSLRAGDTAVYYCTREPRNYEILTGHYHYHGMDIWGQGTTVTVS VL: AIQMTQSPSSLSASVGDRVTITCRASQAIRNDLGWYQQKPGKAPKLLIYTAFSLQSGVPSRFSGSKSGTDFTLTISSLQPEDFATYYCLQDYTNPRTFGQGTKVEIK .
Resp: 31

Req: Consider the binder shown here: H4H1328P (antibody, V domains shown, Fully human anti-GCGR antibody; the controls are called isotype-matched hIgG4) VH: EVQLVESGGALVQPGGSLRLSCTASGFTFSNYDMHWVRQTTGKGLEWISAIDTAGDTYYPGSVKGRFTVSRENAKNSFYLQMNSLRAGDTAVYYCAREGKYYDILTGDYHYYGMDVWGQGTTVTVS VL: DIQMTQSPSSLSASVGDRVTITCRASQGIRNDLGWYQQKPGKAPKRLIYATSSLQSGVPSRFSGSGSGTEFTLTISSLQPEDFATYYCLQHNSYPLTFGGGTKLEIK What is its recorded T½?
Resp: 60
